Answer each item with its documented TGI.
System: KM20L2 colon
measurement_protocol: NCI tumour cell line growth inhibition, 48 h

q: May I ask what TGI has been recorded for `CC(C)OP(=O)(OC(C)C)C(=NCCN=C(NNc1ccccc1[N+](=O)[O-])P(=O)(OC(C)C)OC(C)C)NNc1ccccc1[N+](=O)[O-]` ?
a: 60.2 µM

q: Follow-up entry: COc1ccc(/C=C2\CCC(CCN3CCOCC3)C2=O)cc1 (centres undefined)
a: > 100 µM

q: Another compound: `CCOC(=O)CN(c1ccccc1)c1nc(=[N+](C)C)ss1`
a: > 100 µM

q: Same lookup for `O=C(Cc1nc2ccc([N+](=O)[O-])cc2[nH]c1=O)C(=O)Nc1ccccc1[N+](=O)[O-]` , please.
a: > 100 µM
